Please provide measured Kd for the entries that follow.
- targetOrSystem: IL-6 (Homo sapiens)
- Construct: purchased R&D Systems BT7270B
- Sequence (P05231 30-212): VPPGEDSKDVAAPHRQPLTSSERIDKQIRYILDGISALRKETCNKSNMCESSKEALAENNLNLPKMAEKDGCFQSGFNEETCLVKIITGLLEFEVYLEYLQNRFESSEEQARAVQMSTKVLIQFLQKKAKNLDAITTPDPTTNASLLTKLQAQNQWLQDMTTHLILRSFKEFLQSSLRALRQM
- protocol: Biacore surface plasmon resonance binding of peptides to immobilised IL-6
- testContext: Table 2; N terminus acetylated, C terminus amidated; cells printed in μM; read-out: KD (nM) P < 0.05

>>> print(df.to_string())
                                  substance  readoutkind   result
0  Ac-FSVRDLLRRMKHIVG-NH2 [Peptide 85, FSVRDLLRRMKHIVG]           Kd  > 10 µM
1  Ac-FSFRDLIRMMCHIVG-NH2 [Peptide 74, FSFRDLIRMMCHIVG]           Kd  > 10 µM

The value of Kd measured for the substance Ac-FSFRDLLRMMKHIVG-NH2 [Peptide 92, FSFRDLLRMMKHIVG] turned out to be > 10 µM
